Test system: HCC 2998
Test: NCI tumour cell line growth inhibition, 48 h
Active and inactive are the calls of the source. Rule as the data show it: active = GI50 up to about 1.1 µM and inactive = higher.
Property name: GI50

[
  {
    "Molecule": "CCCCSC(=CC(=O)c1cccc(C(=O)C=C(SCCCC)SCCCC)n1)SCCCC",
    "Tgt": "HCC 2998",
    "Property name": "GI50",
    "Value": "> 100 µM (inactive)"
  },
  {
    "Molecule": "Cc1cc2c(C)nn(Cc3ccc(Cl)cc3Cl)c2c(C#N)c1C",
    "Tgt": "HCC 2998",
    "Property name": "GI50",
    "Value": "> 100 µM (inactive)"
  },
  {
    "Molecule": "CCOC(=O)N(CC)c1c(C(F)(F)F)cc(-c2ccccc2)[nH]c1=O",
    "Tgt": "HCC 2998",
    "Property name": "GI50",
    "Value": "54.2 µM (inactive)"
  },
  {
    "Molecule": "CC(C)(C)OC(=O)C#CC[C@H]1CCCC1/C=C/C(O)=C1/C(=O)NC(CCCNC(=O)OC(C)(C)C)C1=O (some centres undefined)",
    "Tgt": "HCC 2998",
    "Property name": "GI50",
    "Value": "42.9 µM (inactive)"
  },
  {
    "Molecule": "COc1ccc(-c2nc(SCC(=O)N/N=C/c3ccc([N+](=O)[O-])cc3)[nH]c2-c2ccc(OC)cc2)cc1",
    "Tgt": "HCC 2998",
    "Property name": "GI50",
    "Value": "12.1 µM (inactive)"
  }
]

Item CC(=O)O[C@@H]1C[C@@]2(C)[C@@H]3CC=C4[C@@H](C[C@H](O)C(=O)C4(C)C)[C@]3(C)C(=O)C[C@]2(C)[C@H]1[C@@](C)(O)C(=O)/C=C/C(C)(C)OC(C)=O ; assay system HCC 2998; GI50 reported as 0.035 µM (active)

I looked up Cc1cc(C2(c3cc(C)c(O)c4ncccc34)OC(=O)c3ccccc32)c2cccnc2c1O and its GI50 for HCC 2998 was 0.0468 µM (active)

The recorded GI50 with HCC 2998 for Sc1nnc(COc2ccc(Cl)cc2)n1-c1ccccc1 was > 100 µM (inactive)

Summary: CC12N=NNC1C(=O)NC2=O (centres undefined) , HCC 2998, GI50 = > 100 µM (inactive)

###

Tested on: LOX IMVI
Experiment: NCI tumour cell line growth inhibition, 48 h
The source made the active and inactive calls. Rule as the data show it: active = GI50 up to about 1.1 µM and inactive = higher.
Thanks in advance; please answer with one of these: class 1 for active, class 0 for inactive

Consider the following illustrative entries.
[
  {
    "Compound": "C=C1CCCC(C)(C)C1CCC1(C)CCC(C(C)C(=O)OC)OO1 (stereo unspecified)",
    "Discrete label": "class 1"
  },
  {
    "Compound": "CC[C@@]1(O)C(=O)OCc2c1cc1n(c2=O)Cc2c-1nc1ccccc1c2/C=N\\NC(=O)C(N)Cc1ccc(O)cc1 (stereo partly specified)",
    "Discrete label": "class 1"
  },
  {
    "Compound": "COc1ccc(C2=C(OC(C)=O)c3cccn3-c3ccc(Cl)cc3S2)cc1",
    "Discrete label": "class 0"
  },
  {
    "Compound": "CC(C)(C)n1c(=O)[nH]n(C2NN=Cc3cccc4cccc2c34)c1=O (stereo unspecified)",
    "Discrete label": "class 0"
  }
]

**Query** Which result was noted for this compound in the test: CCNc1cc2c(cc1O)CC[C@@H]1[C@@H]2CC[C@]2(C)[C@@H](O)CC[C@@H]12
**Result** class 0

**Query** Recorded test outcome, item CC[C@@H](C)[C@@H]1NC(=O)C(C(C)=O)=C1O
**Result** class 0

**Query** State the result this test recorded for COC(=O)[C@H](CCSC)NC(=O)N[C@H](C)c1ccccc1 .
**Result** class 0

**Query** Identify the outcome logged in this assay for the compound shown: Cc1ccc(Nc2n[nH]c(=S)s2)cc1
**Result** class 0

**Query** For this compound, state the assay outcome: O=S(=O)(O)c1ccc2c(/N=N/c3ccc(S(=O)(=O)O)c4ccccc34)c(O)c(S(=O)(=O)O)cc2c1
**Result** class 0

**Query** Given Sc1nnc(COc2ccc(Cl)cc2)n1-c1ccccc1 , state the outcome it received in this test.
**Result** class 0
